# System Tested: human muscarinic M2 receptor (Homo sapiens)
# Sequence (P08172 whole entry): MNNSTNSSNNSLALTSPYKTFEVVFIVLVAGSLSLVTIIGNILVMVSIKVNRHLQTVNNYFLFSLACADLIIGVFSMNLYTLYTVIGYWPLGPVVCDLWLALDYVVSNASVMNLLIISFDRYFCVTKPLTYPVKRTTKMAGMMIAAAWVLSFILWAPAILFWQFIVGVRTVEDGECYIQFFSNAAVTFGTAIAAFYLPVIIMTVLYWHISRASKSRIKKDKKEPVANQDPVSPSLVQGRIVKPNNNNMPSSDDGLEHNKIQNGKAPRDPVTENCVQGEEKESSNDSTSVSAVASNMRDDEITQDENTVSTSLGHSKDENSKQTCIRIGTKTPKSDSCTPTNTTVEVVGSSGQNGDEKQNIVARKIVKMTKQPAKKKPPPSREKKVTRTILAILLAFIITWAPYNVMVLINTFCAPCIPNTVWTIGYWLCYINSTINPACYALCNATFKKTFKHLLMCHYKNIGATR
# Method Summary: Alphascreen Surefire phospho-ERK1/2 functional assay, M2
# Condition Details: CHO, read-out: % Emax cf. ACh, M2, CHO cells stably expressing human M2; relative to ACh
Readout Label: Emax (%)

- Compound: "CCOC(=O)N1CCC2(CC(N3CCC(c4ncns4)CC3)C2)C1 (single isomer, unassigned) [1-30 Isomer 2]"
  Readout Label: "Emax"
  Reported: 9
- Compound: "COC(=O)N1CCC2(CC(N3CCC(n4ccc(C)n4)CC3)C2)C1 (single isomer, unassigned) [1-45 Isomer 2]"
  Readout Label: "Emax"
  Reported: 56
- Compound: "CCOC(=O)N1CCC2(CC(N3CCC(N4C(=O)OC[C@@H]4C(C)C)CC3)C2)C1 (single isomer, unassigned) [2-123 Isomer 2]"
  Readout Label: "Emax"
  Reported: 8
- Compound: "CCOC(=O)N1CCC2(CC(N3CCC([C@@H]4CCCN4C(=O)NCC(F)F)CC3)C2)C1 (single isomer, unassigned) [2-45 Isomer 2]"
  Readout Label: "Emax"
  Reported: 5
- Compound: "CCOC(=O)N1CCC2(CC(N3CCC([C@@H]4CCCN4C(=O)CCNC(=O)OCc4ccccc4)CC3)C2)C1 (single isomer, unassigned) [2-65 Isomer 2]"
  Readout Label: "Emax"
  Reported: 1
- Compound: "CCOC(=O)N1CCC2(CC(N3CCC(c4nc(C)cn4C)CC3)C2)C1 (single isomer, unassigned) [1-12 Isomer 2]"
  Readout Label: "Emax"
  Reported: 11

(1) CCOC(=O)N1CCC2(CC(N3CCC([C@@H]4CCCN4c4nccs4)CC3)C2)C1 (single isomer, unassigned) [2-82 Isomer 2]
(2) CCOC(=O)N1CCC2(CC(N3CCC(n4cccc4)CC3)C2)C1 (single isomer, unassigned) [1-32 Isomer 2]
(3) CCOC(=O)N1CCC2(CC(N3CCC(N4CCCNC4=O)CC3)C2)C1 (single isomer, unassigned) [4-8 Isomer 1]
In: Put the compounds in ascending order of Emax. Response field: labels, in requested order.
Out: 1, 3, 2
(1: 1%, 3: 3%, 2: 56%)

(1) CCOC(=O)N1CCC2(CC(N3CCC([C@@H]4CCCN4C(=O)N4CCC4)CC3)C2)C1 (single isomer, unassigned) [2-27 Isomer 2]
(2) CNC(=O)N1CCC[C@H]1C1CCN(C2CC3(CCN(C(=O)OC)C3)C2)CC1 (single isomer, unassigned) [2-15 Isomer 2]
(3) CCOC(=O)N1CCC2(CC(N3CCC(c4ccn[nH]4)CC3)C2)C1 (single isomer, unassigned) [1-18 Isomer 2]
In: Put the compounds in ascending order of Emax. Response field: labels, in requested order.
Out: 1, 3, 2
(1: 0.4%, 3: 3%, 2: 9%)

(P) COC(=O)N1CCC2(CC(N3CCC([C@@H]4CCCN4C(=O)NCC(F)(F)F)CC3)C2)C1 (single isomer, unassigned) [2-40 Isomer 2]
(Q) CCOC(=O)N1CCC2(CC(N3CCC(C4CCCN4C(=O)CNC)CC3)C2)C1 (single isomer, unassigned) [2-23 Isomer 2]
(R) CCOC(=O)N1CCC2(CC(N3CCC([C@@H]4CCCN4C(=O)N(C)CC(F)(F)F)CC3)C2)C1 (single isomer, unassigned) [2-55 Isomer 2]
In: Put the compounds in ascending order of Emax. Response field: labels, in requested order.
Out: P, Q, R
(P: 2%, Q: 3%, R: 22%)

(I) CCOC(=O)N1CCC2(CC(N3CCC([C@@H]4CCCN4C(=O)N(C)Cc4ccccn4)CC3)C2)C1 (single isomer, unassigned) [2-63 Isomer 2]
(II) CCOC(=O)N1CCC2(CC(N3CCC(n4nccn4)CC3)C2)C1 (single isomer, unassigned) [1-61 Isomer 2]
(III) CCOC(=O)N1CCC2(CC(N3CCC(N4CC(F)(F)C[C@@H]4C(=O)NOC)CC3)C2)C1 (single isomer, unassigned) [2-91 Isomer 2]
(IV) CCOC(=O)N1CCC2(CC(N3CCC(N4CCSCC4)CC3)C2)C1 (single isomer, unassigned) [4-12 Isomer 2]
In: Put the compounds in ascending order of Emax. Response field: labels, in requested order.
Out: I, II, IV, III
(I: 0%, II: 1%, IV: 7%, III: 12%)
